assayed-system: HDAC3 (Homo sapiens)
Construct: purchased Reaction Biology Corporation (assay run by the CRO)
assay-explanation: HDAC3 inhibition, full IC50 measurement (Reaction Biology; fluorogenic p53 peptide RHKK(Ac)AMC)
Type: biochemical
settings: Conc. 1.23E-07 M, t2
Peptide text beside a SMILES is read from it.
metric: HDAC3 activity raw data (signal)

1. NCCCC[C@@H]1NC(=O)[C@@H]2CCCN2C(=O)[C@H](CC(N)=O)NC(=O)[C@H](CCCCCS)NC(=O)CNC(=O)[C@H](Cc2c[nH]c3ccccc23)NC(=O)[C@@H](CCCCN)NC(=O)[C@H](CCC(N)=O)NC1=O [des1.1.0, SHA-Asn-Pro-Lys-Gln-dLys-Trp-Gly] (HELM PEPTIDE1{G.[O=C([C@H](CCCCCS)N[*:1])[*:2]].N.P.K.Q.[dK].W}$PEPTIDE1,PEPTIDE1,1:R1-8:R2$$$V2.0) : 410292

###

assayed-system: HDAC2 (Homo sapiens, UniProt Q92769)
Construct: purchased Reaction Biology Corporation (assay run by the CRO)
Sequence (Q92769 whole entry): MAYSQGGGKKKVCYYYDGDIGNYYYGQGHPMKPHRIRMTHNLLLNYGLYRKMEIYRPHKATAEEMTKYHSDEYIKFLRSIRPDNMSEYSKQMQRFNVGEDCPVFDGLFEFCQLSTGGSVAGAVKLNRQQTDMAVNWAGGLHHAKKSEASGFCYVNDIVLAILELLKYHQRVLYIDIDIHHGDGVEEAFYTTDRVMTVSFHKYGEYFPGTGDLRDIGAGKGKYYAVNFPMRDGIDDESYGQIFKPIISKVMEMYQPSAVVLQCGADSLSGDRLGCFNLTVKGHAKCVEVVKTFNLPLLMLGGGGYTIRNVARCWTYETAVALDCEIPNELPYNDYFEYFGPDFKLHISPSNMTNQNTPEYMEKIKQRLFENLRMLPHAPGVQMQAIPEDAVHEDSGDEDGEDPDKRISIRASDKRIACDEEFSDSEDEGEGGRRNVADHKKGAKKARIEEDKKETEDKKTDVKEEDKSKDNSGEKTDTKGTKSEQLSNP
assay-explanation: HDAC2 inhibition, full IC50 measurement (Reaction Biology; fluorogenic p53 peptide RHKK(Ac)AMC)
Format: biochemical
Peptide text beside a SMILES is read from it.
# 2-Selectivity: fold potency for HDAC2 over HDAC6 listing for each entry below
metric: 2-Selectivity: fold potency for HDAC2 over HDAC6 (fold)

1. N=C(N)NCCC[C@H]1NC(=O)[C@H]2CCCN2C(=O)[C@@H](Cc2c[nH]cn2)NC(=O)[C@H](Cc2ccc(O)cc2)NC(=O)[C@H](CCCCCS)NC(=O)[C@H](CCc2ccccc2)NC(=O)[C@H]2CCCN2C(=O)[C@H](CC(=O)O)NC(=O)[C@@H]2CCCN2C1=O [des3.2.3, SHA-Tyr-dHis-dPro-dArg-Pro-Asp-dPro-C27] (HELM PEPTIDE1{D.[dP].[O=C([C@H](CCc1ccccc1)N[*:1])[*:2]].[O=C([C@H](CCCCCS)N[*:1])[*:2]].Y.[dH].[dP].[dR].P}$PEPTIDE1,PEPTIDE1,1:R1-9:R2$$$V2.0) : 0.47
2. N=C(N)NCCC[C@H]1NC(=O)[C@H]2CCCN2C(=O)[C@@H](Cc2c[nH]cn2)NC(=O)[C@H](Cc2ccc(O)cc2)NC(=O)[C@H](CCCCCS)NC(=O)[C@H](CCc2ccccc2)NC(=O)[C@@H](CCCCN)NC(=O)[C@H](CC(=O)O)NC(=O)[C@@H]2CCCN2C1=O [des3.2.2, SHA-Tyr-dHis-dPro-dArg-Pro-Asp-dLys-C27] (HELM PEPTIDE1{D.[dK].[O=C([C@H](CCc1ccccc1)N[*:1])[*:2]].[O=C([C@H](CCCCCS)N[*:1])[*:2]].Y.[dH].[dP].[dR].P}$PEPTIDE1,PEPTIDE1,1:R1-9:R2$$$V2.0) : 0.41
3. NCCCC[C@H]1NC(=O)[C@H](CCC(N)=O)NC(=O)[C@H](CCC(=O)O)NC(=O)[C@@H]2CCCN2C(=O)[C@H](CC(N)=O)NC(=O)[C@H](CCCCCS)NC(=O)CNC(=O)[C@H](Cc2c[nH]c3ccccc23)NC1=O [des1.1.1, SHA-Asn-Pro-Glu-Gln-dLys-Trp-Gly] (HELM PEPTIDE1{E.Q.[dK].W.G.[O=C([C@H](CCCCCS)N[*:1])[*:2]].N.P}$PEPTIDE1,PEPTIDE1,1:R1-8:R2$$$V2.0) : 0.17

###

assayed-system: HDAC2 (Homo sapiens, UniProt Q92769)
Construct: purchased Reaction Biology Corporation (assay run by the CRO)
assay-explanation: HDAC2 inhibition, full IC50 measurement (Reaction Biology; fluorogenic p53 peptide RHKK(Ac)AMC)
Format: biochemical
settings: Conc. 1.00E-05 M, t2
Peptide text beside a SMILES is read from it.
metric: HDAC2 activity raw data (signal)

1) CCCC[C@H]1NC(=O)[C@H](CC(=O)O)NC(=O)[C@@H](CO)NC(=O)[C@@H](C)NC(=O)[C@H](CCCCN)NC(=O)[C@@H](CCCCN)NC(=O)[C@H](Cc2ccccc2)NC(=O)[C@H](CCCCCS)NC1=O [des4.3.1.2, SHA-Phe-dLys-Lys-dAla-dSer-Asp-dNle] (HELM PEPTIDE1{D.[CCCC[C@@H](N[*:1])C(=O)[*:2]].[O=C([C@H](CCCCCS)N[*:1])[*:2]].F.[dK].K.[dA].[dS]}$PEPTIDE1,PEPTIDE1,1:R1-8:R2$$$V2.0) : 1124925

###

# HDAC3 activity raw data (signal) listing for each entry below
assayed-system: HDAC3 (Homo sapiens, UniProt O15379)
Construct: purchased Reaction Biology Corporation (assay run by the CRO)
Sequence (O15379 whole entry): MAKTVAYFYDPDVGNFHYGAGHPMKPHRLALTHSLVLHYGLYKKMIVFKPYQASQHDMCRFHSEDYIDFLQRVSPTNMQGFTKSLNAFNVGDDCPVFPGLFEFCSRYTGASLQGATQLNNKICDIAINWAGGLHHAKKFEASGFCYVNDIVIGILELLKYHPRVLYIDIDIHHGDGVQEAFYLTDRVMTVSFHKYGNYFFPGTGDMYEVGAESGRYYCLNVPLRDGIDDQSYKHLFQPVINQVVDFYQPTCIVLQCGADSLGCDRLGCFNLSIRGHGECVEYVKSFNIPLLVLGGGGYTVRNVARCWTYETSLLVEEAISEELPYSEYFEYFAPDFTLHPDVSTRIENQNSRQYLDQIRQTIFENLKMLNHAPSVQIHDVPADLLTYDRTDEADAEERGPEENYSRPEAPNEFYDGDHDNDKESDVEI
Sequence (Q9Y618 395-489 partner limits assumed): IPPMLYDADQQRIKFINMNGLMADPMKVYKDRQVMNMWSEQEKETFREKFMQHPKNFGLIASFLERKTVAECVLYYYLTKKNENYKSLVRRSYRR
assay-explanation: HDAC3 inhibition, full IC50 measurement (Reaction Biology; fluorogenic p53 peptide RHKK(Ac)AMC)
Format: biochemical
settings: Conc. 1.23E-07 M, t1
Peptide text beside a SMILES is read from it.
metric: HDAC3 activity raw data (signal)

1) NCCCC[C@H]1NC(=O)[C@H](CCC(N)=O)NC(=O)[C@H](CCC(=O)O)NC(=O)[C@@H]2CCCN2C(=O)[C@H](CC(N)=O)NC(=O)[C@H](CCCCCS)NC(=O)CNC(=O)[C@H](Cc2c[nH]c3ccccc23)NC1=O [des1.1.1, SHA-Asn-Pro-Glu-Gln-dLys-Trp-Gly] (HELM PEPTIDE1{E.Q.[dK].W.G.[O=C([C@H](CCCCCS)N[*:1])[*:2]].N.P}$PEPTIDE1,PEPTIDE1,1:R1-8:R2$$$V2.0) : 623414
2) N=C(N)NCCC[C@@H]1NC(=O)[C@H](Cc2c[nH]c3ccccc23)NC(=O)[C@H](CC(=O)O)NC(=O)[C@@H](CO)NC(=O)[C@H](Cc2c[nH]c3ccccc23)NC(=O)[C@H](CCCCCS)NC(=O)[C@H](CCC(N)=O)NC1=O [des4.1.0, SHA-Trp-dSer-Asp-Trp-Arg-Gln] (HELM PEPTIDE1{D.W.R.Q.[O=C([C@H](CCCCCS)N[*:1])[*:2]].W.[dS]}$PEPTIDE1,PEPTIDE1,1:R1-7:R2$$$V2.0) : 403506
3) C[C@H](O)[C@H]1NC(=O)[C@H](Cc2c[nH]c3ccccc23)NC(=O)[C@H](CCCCCS)NC(=O)[C@H](CCCCN)NC(=O)[C@@H](CC(=O)O)NC(=O)[C@@H](CCCCN)NC(=O)[C@@H](CO)NC(=O)[C@H](CC(N)=O)NC(=O)[C@H](CC(=O)O)NC1=O [des2.1.0, SHA-Trp-dThr-Asp-Asn-dSer-dLys-dAsp-Lys] (HELM PEPTIDE1{D.N.[dS].[dK].[dD].K.[O=C([C@H](CCCCCS)N[*:1])[*:2]].W.[dT]}$PEPTIDE1,PEPTIDE1,1:R1-9:R2$$$V2.0) : 462933
4) N=C(N)NCCC[C@H]1NC(=O)[C@@H]2CCCN2C(=O)[C@H](CO)NC(=O)[C@@H](Cc2c[nH]cn2)NC(=O)[C@H](CCCCCS)NC(=O)[C@H](CCCCN)NC(=O)[C@H](Cc2ccc(O)cc2)NC(=O)[C@H]2CCCN2C(=O)[C@@H](CCC(N)=O)NC1=O [des3.1.0, SHA-dHis-Ser-Pro-dArg-dGln-dPro-Tyr-Lys] (HELM PEPTIDE1{K.[O=C([C@H](CCCCCS)N[*:1])[*:2]].[dH].S.P.[dR].[dQ].[dP].Y}$PEPTIDE1,PEPTIDE1,1:R1-9:R2$$$V2.0) : 842197
5) CC(C)[C@@H]1NC(=O)[C@H](CCCNC(=N)N)NC(=O)[C@@H](CC(=O)O)NC(=O)[C@H](CO)NC(=O)[C@@H](CO)NC(=O)[C@@H](CCC(=O)O)NC(=O)[C@H](Cc2ccc(O)cc2)NC(=O)[C@H](CCCCCS)NC1=O [des4.2.0, SHA-Tyr-dGlu-dSer-Ser-dAsp-Arg-Val] (HELM PEPTIDE1{R.V.[O=C([C@H](CCCCCS)N[*:1])[*:2]].Y.[dE].[dS].S.[dD]}$PEPTIDE1,PEPTIDE1,1:R1-8:R2$$$V2.0) : 525206
6) NCCCC[C@@H]1NC(=O)[C@@H]2C[C@@H](O)CN2C(=O)[C@H](CC(N)=O)NC(=O)[C@H](CCCCCS)NC(=O)CNC(=O)[C@H](Cc2c[nH]c3ccccc23)NC(=O)[C@@H](CCCCN)NC(=O)[C@H](CCC(N)=O)NC1=O [des1.1.2, SHA-Asn-Hpr-Lys-Gln-dLys-Trp-Gly] (HELM PEPTIDE1{G.[O=C([C@H](CCCCCS)N[*:1])[*:2]].N.[Hyp].K.Q.[dK].W}$PEPTIDE1,PEPTIDE1,1:R1-8:R2$$$V2.0) : 601268
